- EXPERIMENT: qHTS profiling for inhibitors of Plasmodium falciparum proliferation (AID 504749); also: potency is read from the fitted curve at half-maximal effect; nearly all actives have a fitted effect of over 60% in size
- COND: P. falciparum in erythrocytes, SYBR Green DNA, 72 h; parasite line A
- Procedure: NIH National Institute of Allergy and Infectious Diseases [NIAID] NIH Chemical Genomics Center [NCGC] […] Because mature erythrocytes lack DNA, only Plasmodium-derived DNA is detected. NCGC Assay Protocol Summary: The SYBR Green viability assay was adapted from a method described previously (Plouffe et al., 2008). […] The following morning, fluorescence intensity at 485(14) nm excitation and 535(25) nm emission wavelengths was measured on an EnVision (Perkin Elmer) plate reader. […]
Records with an inconclusive call do not appear. Active and inactive are the calls of the source. Calls follow the shape of the dose curve; as a rule, active = well fitted inhibition curve with a large enough effect; inconclusive = small, poorly fitted or top-dose-only effect; inactive = flat fitted curve, though single readings scatter.
QUANTITY MEASURED: Potency

| MOLECULE | RECORDED RESULT |
| --- | --- |
| CCN(CC)CCNC(=O)c1c(C)[nH]c(/C=C2\C(=O)Nc3ccc(F)cc32)c1C | 6.31 µM (active) |

Problem: Using known records, supply Potency for `NC(=O)N/N=C/c1ccc([N+](=O)[O-])o1`
Solution: 12.6 µM (active)

Problem: Using known records, supply Potency for `CNC(=O)Oc1ccc2c(c1)[C@]1(C)CCN(C)[C@@H]1N2C`
Solution: 1.58 µM (active)

Problem: Using known records, supply Potency for CCCCN(CCCC)CC(O)c1cc(Cl)cc2c1-c1ccc(Cl)cc1/C2=C/c1ccc(Cl)cc1 (centres undefined)
Solution: 0.0251 µM (active)
